Test system: Candida albican ATCC 96901
Assay: In vitro antifungal activity (MIC80), Candida albican ATCC 96901
Assay type: cell-based
Details: Candida, ATCC96901; Table 2, ATCC 96901; read-out: Minimal inhibitory concentration (MIC80)
MEASURED_PARAMETER: MIC80 (µg/mL)
Numeric only. Scale: µg/mL

Take a look at these entries with their results.
{"COMPOUND": "CC(N1CCCN(c2ccc(C#N)nc2)CC1)C(O)(Cn1cncn1)c1ccc(F)cc1F (stereo not shown)", "ASSAY_SYSTEM": "Candida albican ATCC 96901", "RECORDED_RESULT": 32}
{"COMPOUND": "C[C@@H](N1CCN(c2cccc(OCc3ccccc3)n2)CC1)[C@](O)(Cn1cncn1)c1ccc(F)cc1F", "ASSAY_SYSTEM": "Candida albican ATCC 96901", "RECORDED_RESULT": 2}

Next up:
Form field: reported MIC80 of `C[C@@H](N1CCN(c2nc3ccccc3o2)CC1)[C@](O)(Cn1cncn1)c1ccc(F)cc1F` 4

###

Tested on: Candida albican ATCC MYA-1003
Test: In vitro antifungal activity (MIC80), Candida albican ATCC MYA-1003
Format: cell-based
Conditions: Candida; Table 2, MYA 1003; read-out: Minimal inhibitory concentration (MIC80)
Quick reference: MIC80 of the listed items.

Form field: reported MIC80 of `CC(C)Oc1ccc(N2CCN([C@H](C)[C@](O)(Cn3cncn3)c3ccc(F)cc3F)CC2)cn1` > 128 µg/mL

###

Test system: Candida albican ATCC 96901
Test: In vitro antifungal activity (MIC80), Candida albican ATCC 96901
Type: cell-based
Details: Candida, ATCC96901; Table 2, ATCC 96901; read-out: Minimal inhibitory concentration (MIC80)
MEASURED_PARAMETER: MIC80 (µg/mL)
Numeric only. Scale: µg/mL

Take a look at these entries with their results.
{"COMPOUND": "C[C@@H](N1CCN(c2ccc(OCC3CC3)nc2)CC1)[C@](O)(Cn1cncn1)c1ccc(F)cc1F [Example 30]", "MIC80 [µg/mL]": 32}
{"COMPOUND": "CC(N1CCN(c2ccc(N(C)CCCN3CCOCC3)nc2)CC1)C(O)(Cn1cncn1)c1ccc(F)cc1F (centres unmarked) [Example 36]", "MIC80 [µg/mL]": 16}

Form field: reported MIC80 of C[C@@H](N1CCN(c2nc3ccccc3n2C)CC1)[C@](O)(Cn1cncn1)c1ccc(F)cc1F [Example 3] 4

Form field: reported MIC80 of C[C@@H](N1CCN(Cc2ccccn2)CC1)[C@](O)(Cn1cncn1)c1ccc(F)cc1F [Example 41] 32

Form field: reported MIC80 of C[C@@H](N1CCN(c2nc3ccc(Cl)cc3o2)CC1)[C@](O)(Cn1cncn1)c1ccc(F)cc1F [Example 6] 2

Form field: reported MIC80 of C[C@@H](N1CCN(c2nc3ccccc3s2)CC1)[C@](O)(Cn1cncn1)c1ccc(F)cc1F [Example 2] 2

Form field: reported MIC80 of C[C@@H](N1CCN(c2ncccn2)CC1)[C@](O)(Cn1cncn1)c1ccc(F)cc1F [Example 18] 8

Form field: reported MIC80 of C[C@@H](N1CCN(c2ccc(OCCN3CCOCC3)nc2)CC1)[C@](O)(Cn1cncn1)c1ccc(F)cc1F [Example 34] 32
